Form field: %Inh (one value per entry).
# System: MELK;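 also: KINOMEscan kinase panel screen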
# condition-parameters: concentration: 1 μM, replicates: in singlicate; n = 1
Expressed in %, but write only the number.

Some solved entries appear below for comparison.
O=C1NC(=O)C(c2ccccc2)=C1Nc1cccc(O)c1 [SB-390534] :: 4
CCC(=O)c1c(-c2ccccc2)c2cc(Cl)ccc2c(=O)n1Cc1cc(S(C)(=O)=O)n(CCC(C)(C)O)n1 :: 16
O=C(Nc1n[nH]c2nc(-c3ccccc3)c(Cl)cc12)C1CC1 [SB-734909] :: 0

Query string: Consider the compound Cc1nn2c(=O)cc(N3CCOCC3)nc2n1Cc1cccc(Cl)c1Cl [GSK2342769] and give its measured %Inh.
Result string: 8

Query string: What do you have for `COC(=O)c1c(-c2ccccc2)c2cc(C)ccc2c(=O)n1Cc1ccccc1` ?
Result string: 0

Query string: What do you have for FC(F)(F)c1ccc(-c2ncn(CCCN3CCOCC3)c2-c2ccncc2)cc1 [SB-217780] ?
Result string: 2

Query string: What do you have for `CC(C)(C)c1ccc(C(=O)Nc2cn3cc(-c4ccccc4)ccc3n2)cc1` ?
Result string: 0

Query string: What do you have for `CCC(=O)c1c(-c2ccccc2)c2cc(Cl)ccc2c(=O)n1Cc1cc(S(C)(=O)=O)n(CC(F)F)n1` ?
Result string: 0

Query string: What do you have for O=C(NCCNc1ccnc(Nc2ccc(F)cc2)n1)Nc1ccc2c(c1)OCO2 [GSK1379882] ?
Result string: 8
